Where do these numbers come from? They come from PubChem BioAssay (NCI).

# System: EKVX NSCLC
# method_notes: NCI-60 one-dose screen, 48 h
# run_conditions: 10 µM unless noted
The panel holds about 83,000 compounds, 20% with a hit somewhere; the sample as a whole holds those more often. Active and inactive are the calls of the source. How the source made its calls: active means growth percent below 10; inactive means the rest.
Valid outcomes are listed here; reply with one: YES (active), NO (inactive)

*Q* // param item: "Cc1cnc(NC(=O)Nc2cc(Br)c(C)cc2OC[C@@H]2CNCCO2)cn1" ; yields the recorded call
*A* NO

*Q* // param item: "Cc1cccc(Cl)c1NC(=O)c1cnc(Nc2cc(N3CCOCC3)cc(S(C)(=O)=O)c2)s1" ; yields the recorded call
*A* NO

*Q* // param item: "CCCNC(=O)c1cn2ncnc(Nc3cc(C(=O)NC4CC4)ccc3C)c2c1C" ; yields the recorded call
*A* NO
